The reported numbers originate from patent US20060257938A1.

# TEST_METHOD_NOTES: Probe fluorescence ratio response to arachidonic acid relative to ADIFAB2
# Format: binding
# EXPERIMENTAL_PARAMETERS: arachidonic acid; response relative to ADIFAB2
READOUT_KIND: DR/DR AA

molecule="18V 31A 73F 72A (protein, listed as Rattus norvegicus, PEPTIDE (1)...(131) wild-type rat intestinal fatty acid binding protein) AFDGTWKVDRNENYEKFVEKMGINVVKRKLAAHDNLKLTITQEGNKFTVKESSNFRNIDVVFELGVDFAYSAFDGTELTGTWTMEGNKLVGKFKRVDNGKELIAVREISGNELIQTYTYEGVEAKRIFKKE" readout_kind="DR/DR AA" result=1.142
molecule="102C, 72A (protein, listed as Rattus norvegicus, PEPTIDE (1)...(131) wild-type rat intestinal fatty acid binding protein) AFDGTWKVDRNENYEKFMEKMGINVVKRKLGAHDNLKLTITQEGNKFTVKESSNFRNIDVVFELGVDFAYSAADGTELTGTWTMEGNKLVGKFKRVDNGKECIAVREISGNELIQTYTYEGVEAKRIFKKE" readout_kind="DR/DR AA" result=0.14
molecule="11M, 72A (protein, listed as Rattus norvegicus, PEPTIDE (1)...(131) wild-type rat intestinal fatty acid binding protein) AFDGTWKVDRMENYEKFMEKMGINVVKRKLGAHDNLKLTITQEGNKFTVKESSNFRNIDVVFELGVDFAYSAADGTELTGTWTMEGNKLVGKFKRVDNGKELIAVREISGNELIQTYTYEGVEAKRIFKKE" readout_kind="DR/DR AA" result=0.697
